tested on: L1210 leukemia ip in BDF1 mice, survival T/C; test: NCI In Vivo Anticancer Drug Screen. Data for tumor model L1210 Leukemia (intraperitoneal) in B6D2F1 (BDF1) mice; conditions: endpoint: mean survival time; dose: 25.0 mg/kg/injection; schedule: Q04DX003 (ip); vehicle: saline; higher = longer survival
Inconclusive results and toxic doses are left out.

Structure: NC(N)=N/N=C/c1ccc2c(c1)CCC2
Target desc: L1210 leukemia ip in BDF1 mice, survival T/C
T/C: 97 % of control
//
Structure: CC1(C)CCN1Cc1ccccc1
Target desc: L1210 leukemia ip in BDF1 mice, survival T/C
T/C: 101 % of control
//
Structure: OCCN1CCN(CCCN2c3ccccc3C=Cc3ccccc32)CC1
Target desc: L1210 leukemia ip in BDF1 mice, survival T/C
T/C: 93 % of control
//
Structure: C[S+](C)Cc1ccc(C(=O)Oc2ccc([N+](=O)[O-])cc2)cc1
Target desc: L1210 leukemia ip in BDF1 mice, survival T/C
T/C: 97 % of control
//
Structure: CCOC(C(=O)OC1CCN(C)CC1)(c1ccccc1)c1ccccc1
Target desc: L1210 leukemia ip in BDF1 mice, survival T/C
T/C: 97 % of control
//
Structure: O=C(Cn1ccc(=O)[nH]c1=O)Nc1nccs1
Target desc: L1210 leukemia ip in BDF1 mice, survival T/C
T/C: 95 % of control

====

system: L1210 leukemia ip in BDF1 mice, survival T/C; experiment: NCI In Vivo Anticancer Drug Screen. Data for tumor model L1210 Leukemia (intraperitoneal) in B6D2F1 (BDF1) mice; settings: endpoint: mean survival time; dose: 100.0 mg/kg/injection; schedule: Q04DX002 (ip); vehicle: Klucel (hydroxypropylcellulose) (HPC); higher = longer survival
Toxic doses and inconclusive results are not listed.
Listed below: T/C values for each entry.

Compound: CCN(CC)Cc1cc(Nc2c3ccc(Cl)cc3nc3ccc(OC)cc23)ccc1O
T/C: 105 % of control

Compound: O=C(Oc1ccccc1)Oc1ccccc1
T/C: 96 % of control

Compound: Cn1[nH]c(=O)c2ncccc2c1=O
T/C: 97 % of control

Compound: CCCCCCCCCCCCNC(C)=O
T/C: 98 % of control

Compound: N#Cc1cccc(CS(=O)(=O)c2ccccc2)c1
T/C: 104 % of control

Compound: Nc1cccc(NC(=O)Nc2ccccc2)c1
T/C: 91 % of control

Compound: C1=CC2CC1CC2/C=N\N=C\C1CC2C=CC1C2 (centres undefined)
T/C: 118 % of control

Compound: CCOC(=O)CC(C)(C)CC(=O)C1CNC2=C(C1)C(=O)CC(C)(C)C2 (centres undefined)
T/C: 89 % of control

Compound: O=C1Nc2ccccc2C2=C3CCCCC3=NNC12 (centres undefined)
T/C: 101 % of control

====

tested on: L1210 leukemia ip in BDF1 mice, survival T/C; experiment: NCI In Vivo Anticancer Drug Screen. Data for tumor model L1210 Leukemia (intraperitoneal) in B6D2F1 (BDF1) mice; conditions: endpoint: mean survival time; dose: 100.0 mg/kg/injection; schedule: Q01DX009 (ip); vehicle: saline with Tween-80; higher = longer survival
Toxic doses and inconclusive results are not listed.
Quantity: T/C

Compound: Cc1cc(Br)ccc1N
Measured: 99 % of control
--
Compound: COc1ccc(C=NCCN=Cc2ccc(OC)c(OC)c2)cc1OC
Measured: 101 % of control
--
Compound: Oc1ccc(C2N(c3ccccc3)CCN2c2ccccc2)cc1
Measured: 111 % of control
--
Compound: CC1(c2cccs2)C(=O)NC(=O)N1C(=O)CCl (stereo not drawn)
Measured: 109 % of control
--
Compound: N#CCCC(C#N)(CCC#N)c1ccc([N+](=O)[O-])cc1
Measured: 102 % of control
--
Compound: O=C1C(N2CCOCC2)=Cc2cccc3cccc1c23
Measured: 97 % of control
--
Compound: N#CC1=C(N)CCC(C#N)(c2ccccc2)C1 (stereo not drawn)
Measured: 98 % of control
--
Compound: COc1ccccc1NC(=O)Nc1ccc(N(C)C)cc1
Measured: 91 % of control
--
Compound: c1ccc(N2CCN(c3ccccn3)CC2)nc1
Measured: 99 % of control
--
Compound: N#CCCC1CCCCC1=O (stereo not drawn)
Measured: 94 % of control
--
Compound: CCCCC(CC)C(O)CC(O)CC (stereo not drawn)
Measured: 92 % of control
--
Compound: CC(C)(C)N1C(=O)N(C(C)(C)C)C1=O
Measured: 91 % of control
--
Compound: Cc1ccc(Cl)cc1NC(=O)c1c(Br)c(Br)c(Br)c(Br)c1C(=O)O
Measured: 105 % of control

Data provenance is PubChem BioAssay AID248.
